# Tested on: HCC1569
# MEASUREMENT DESCRIPTION: cell number relative to DMSO (% of DMSO); higher = more cells (less growth inhibition / toxicity)
# CONDITION NOTES: concentration: 10 µM; 24 h
Each item that follows carries a reported cell number.
Reply: number alone, nothing else.

Illustrative cases are given below, each with its answer.
CN(CCOc1ccc(CC2SC(=O)NC2=O)cc1)c1ccccn1.O=C(O)C=CC(=O)O (stereo not given) [Rosiglitazone maleate] = 103
O=C(c1ccc(C(=O)N2CCC(N3CCCC3)CC2)c(Nc2ccccc2)c1)N1CCC(N2CCCC2)CC1 = 99.8
O=C1OC(C(O)CO)C(O)=C1O (stereo not given) = 100
Fc1ccc(-c2c3cccc(C(F)(F)F)c3nn2Cc2ccc(F)cc2Cl)cc1 = 100

Now turn to the next compound.
Entry Nc1nc(Cl)nc2c1ncn2C1OC(CO)C(O)C1O (stereo not given) , cell number reported as 99.3

* * *

Each item that follows carries a reported cell number.
# Tested on: HCC1569
# MEASUREMENT DESCRIPTION: cell number relative to DMSO (% of DMSO); higher = more cells (less growth inhibition / toxicity)
# CONDITION NOTES: concentration: 10 µM; 24 h

Illustrative cases are given below, each with its answer.
COC1=C2CC(C)=c3c(C(C)=O)c(OC)c(O)c4c3c2c2c(cc(OC)c3c(OC)cc(O)c4c32)C(=O)C1=O = 101
Cc1cccc(C)c1OCC(N)C(C)C.I (stereo unspecified) = 103
COc1ccc(C(=O)/C(Cc2cc(OC)c(OC)c(OC)c2)=C(\C(=O)[O-])c2ccc3c(c2)OCO3)cc1.[Na+] = 97.7
COc1cc2c(c(OC)c1OC)-c1c(cc3c(c1OC)OCO3)C[C@H](C)[C@@](C)(O)C2 = 97.6
CCCCS(=N)(=O)CCC(N)C(=O)O (racemic) [DL-Buthionine-[S,R]-sulfoximine] = 102

Entry CCCCCC=CC=C1C(=O)C=CC1CC=CCCCC(=O)O (stereo unspecified) [15d-Prostaglandin J2] , cell number reported as 98.9

Entry CC(C)[N+](C)(CCOC(=O)C1c2ccccc2Oc2ccccc21)C(C)C.[Br-] [Propantheline bromide] , cell number reported as 99.3

Entry COc1cc2ccc(=O)oc2cc1O , cell number reported as 101

Entry COc1ccc(C2CNC(=O)C2)cc1OC1CCCC1 (stereo unspecified) , cell number reported as 101

Entry Cn1c(-c2ccc3c(c2)OCO3)cc(=O)c2ccccc21 , cell number reported as 103

Entry COc1cc2c(c(OC)c1OC)-c1c(cc(OC)c(OC)c1OC)C[C@](C)(O)[C@@H](C)C2 , cell number reported as 100

* * *

# Tested on: HCC1569
# MEASUREMENT DESCRIPTION: H1.0 immunofluorescence intensity relative to DMSO (% of DMSO); higher = stronger H1.0 induction, active = 140 or more
# CONDITION NOTES: concentration: 10 µM; 24 h
Class 1: H1.0 immunofluorescence intensity at least 90. Class 0: H1.0 immunofluorescence intensity below 90.

C=CCc1ccc(O)c(-c2ccc(O)c(CC=C)c2)c1 = 1

Req: Quick check: does CN(CCOc1ccc(CC2SC(=O)NC2=O)cc1)c1ccccn1.O=C(O)C=CC(=O)O (stereo unspecified) [Rosiglitazone maleate] have H1.0 immunofluorescence intensity greater than or equal to 90?
Resp: 1

Req: Quick check: does O=C([O-])CCC(NC(=O)c1ccccc1C(=O)[O-])C(=O)[O-].[Na+].[Na+].[Na+] [Phthalamoyl-L-glutamic acid trisodium] have H1.0 immunofluorescence intensity greater than or equal to 90?
Resp: 1

Req: Quick check: does O=C(NC1=CNNC1=C1N=c2ccc(CN3CCOCC3)cc2=N1)NC1CC1 have H1.0 immunofluorescence intensity greater than or equal to 90?
Resp: 0

Req: Quick check: does CC(=O)NCCc1c[nH]c2ccc(O)cc12 [N-Acetyl-5-hydroxytryptamine] have H1.0 immunofluorescence intensity greater than or equal to 90?
Resp: 0

* * *

# System: HCC1569
# MEASUREMENT DESCRIPTION: cell number relative to DMSO (% of DMSO); higher = more cells (less growth inhibition / toxicity)
# CONDITION NOTES: concentration: 10 µM; 24 h
Each item that follows carries a reported cell number.
Reply: number alone, nothing else.

Illustrative cases are given below, each with its answer.
CCCCc1ncc(C=C(Cc2cccs2)C(=O)O)n1Cc1ccc(C(=O)O)cc1.CS(=O)(=O)O [Eprosartan mesylate] = 97.1
CC(C)NCC(O)COc1ccc(CCOCC2CC2)cc1.Cl (centres undefined) [Betaxolol.HCl] = 103
CC1(C)CCC=[N+]1[O-] [5,5-Dimethyl-1-pyrroline-N-oxide] = 100
CCCCCCC=CCCCCCCCCCC(=O)O [11(Z)-Octadecenoic acid] = 99.8
CCC(=O)Nc1ccc2ncnc(Nc3cccc(Br)c3)c2c1 = 89.4
CC12CCC3c4ccc(O)cc4CCC3C1CC(O)C2O (centres undefined) = 98.5

Entry CC(C)=CCC[C@@H](C)[C@H]1CC[C@H]2[C@@H]3CC=C4C[C@@H](O)CC[C@]4(C)[C@H]3CC[C@]12C , cell number reported as 103

Entry COc1cccc(OC)c1OCCNCC1COc2ccccc2O1.Cl (centres undefined) [WB-4101 hydrochloride] , cell number reported as 102

Entry O=C1OC(CN2CCOCC2)CN1/N=C/c1ccc([N+](=O)[O-])o1 (centres undefined) , cell number reported as 102

* * *

# Test system: TDF
# MEASUREMENT DESCRIPTION: cell number relative to DMSO (% of DMSO); higher = more cells (less growth inhibition / toxicity)
# CONDITION NOTES: concentration: 10 µM; 24 h
Each item that follows carries a reported cell number.
Reply: number alone, nothing else.

Illustrative cases are given below, each with its answer.
Cc1cc(NC(=O)CS(=O)(=O)c2cn(Cc3cc(Br)ccc3F)c3ccccc23)no1 = 99.6
O=C(CCCN1CC=C(n2c(=O)[nH]c3ccccc32)CC1)c1ccc(F)cc1 = 98.1

Bench note, TDF: O=C1CCN(c2ccccc2)N1 , cell number reads 97.6

Bench note, TDF: CN(C)CC(=O)Nc1ccc2[nH]c(=O)c3ccccc3c2c1.Cl.O , cell number reads 99.1

Bench note, TDF: Cn1c(=O)[nH]c2ncn(C)c2c1=O , cell number reads 98.9

* * *

# System: HCC1569
# MEASUREMENT DESCRIPTION: H1.0 immunofluorescence intensity relative to DMSO (% of DMSO); higher = stronger H1.0 induction, active = 140 or more
# CONDITION NOTES: concentration: 10 µM; 24 h
MEASURED QUANTITY: H1.0 immunofluorescence intensity
Reply: number alone, nothing else.

Entry CN(C)CCC(c1ccc(Br)cc1)c1ccccn1.O=C(O)C=CC(=O)O (single isomer, unassigned; (+)) [(+)-Brompheniramine maleate] , H1.0 immunofluorescence intensity reported as 102

* * *

# Tested on: HCC1569
# MEASUREMENT DESCRIPTION: H1.0 immunofluorescence intensity relative to DMSO (% of DMSO); higher = stronger H1.0 induction, active = 140 or more
# CONDITION NOTES: concentration: 10 µM; 24 h
MEASURED QUANTITY: H1.0 immunofluorescence intensity
Reply: number alone, nothing else.

CN(C)C(=O)COC(=O)Cc1ccc(OC(=O)c2ccc(N=C(N)N)cc2)cc1.CS(=O)(=O)O = 98.5
C[N+]1(C)CCC(OC(=O)C(c2ccccc2)c2ccccc2)CC1.[I-] [4-DAMP methiodide] = 101
CCCC1=C(c2ccc(O)cc2)N(c2ccc(O)cc2)NC1=C1C=CC(=O)C=C1 [1,3,5-tris(4-hydroxyphenyl)-4-propyl-1H-pyrazole] = 99.1

Now turn to the next compound.
Entry CCCCCC(O)C=CC1C(O)CC(=O)C1CCCCCCC(=O)O (centres undefined) [Prostaglandin E1] , H1.0 immunofluorescence intensity reported as 101

* * *

# Test system: HCC1569
# MEASUREMENT DESCRIPTION: H1.0 immunofluorescence intensity relative to DMSO (% of DMSO); higher = stronger H1.0 induction, active = 140 or more
# CONDITION NOTES: concentration: 10 µM; 24 h
MEASURED QUANTITY: H1.0 immunofluorescence intensity
Reply: number alone, nothing else.

CCCCCC=CCC=CC=CC=CC(SCC(N)C(=O)NCC(=O)O)C(O)CCCC(=O)O (stereo not given) = 97.3
O=C1CN(N=Cc2ccc(-c3ccc([N+](=O)[O-])cc3)o2)C(=O)[N-]1.[Na+] [Dantrolene sodium] = 102
CC(=O)C1(O)CCC2C3CCC4=CC(=O)CCC4(C)C3CCC21C (stereo not drawn) [17alpha-hydroxyprogesterone] = 99.8
CN1CCc2cccc3c2C1Cc1ccc(O)c(O)c1-3.Cl (stereo not given) [Apomorphine hydrochloride hemihydrate] = 99.6

Entry CCCCCCCCC=CCCCCCCCCC(=O)O [10(E)-Nonadecenoic acid] , H1.0 immunofluorescence intensity reported as 101
